experiment: NCI Yeast Anticancer Drug Screen. Data for the sgs1 mgt1 strain (AID 161);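 also: 0% = growth of cultures given vehicle only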; conditions: S. cerevisiae sgs1 mgt1 strain, at 50.0 µM, active compounds read high
Compounds without any hit were thinned out: in the full panel of roughly 79,000, 15% have a hit.
parameter: growth inhibition (%)
The figure you give is taken to be in %; do not add the unit.

Returns the measured growth inhibition for the input compound. Input: Cc1cc(C)n(-c2ccncc2[N+](=O)[O-])n1 -2.45

Returns the measured growth inhibition for the input compound. Input: CCOC(=O)C1=CCOc2cc(N(C)C)ccc21 -1.25

Returns the measured growth inhibition for the input compound. Input: CC(=O)OCC1OC(OC(C)=O)C(NC(=O)c2ccc(Br)cc2)C(OC(C)=O)C1OC(C)=O (stereo not drawn) 39.5

Returns the measured growth inhibition for the input compound. Input: CCc1ccccc1N1C(=O)C(=O)C(c2nc3ccccc3s2)C(=O)C1=O 17.2

Returns the measured growth inhibition for the input compound. Input: ClCC#CCCl 16.9

Returns the measured growth inhibition for the input compound. Input: O=C1c2sccc2[C@H](NC(=O)C(F)(F)F)[C@@H]1Cl 1.1

Returns the measured growth inhibition for the input compound. Input: COC(=O)C1CCC(=O)CC1 -9.9

Returns the measured growth inhibition for the input compound. Input: N#CCc1ccc(-c2ccccc2)cc1 3.3

Returns the measured growth inhibition for the input compound. Input: CC1(C)CN2C(c3ccccc3)=NN(c3ccccc3)C2(C)C1 (stereo not drawn) 20.9

Returns the measured growth inhibition for the input compound. Input: CC(=O)c1cccc(NC(=O)Oc2ccc(Cl)cc2Cc2ccccc2)c1 64.1

Returns the measured growth inhibition for the input compound. Input: CC1(C)Oc2ccc(NC(=O)CCC(N)C(=O)O)cc2O1 (stereo not drawn) -1

Returns the measured growth inhibition for the input compound. Input: O=C(c1ccncc1)C(C(c1ccccc1)N1CCOCC1)N1CCOCC1 (stereo not drawn) 34

Returns the measured growth inhibition for the input compound. Input: Nc1ccc2cc(S(=O)(=O)O)ccc2c1 -21.1

Returns the measured growth inhibition for the input compound. Input: CCOC(=O)[C@H]1CSC[C@@H](C(=O)OC)N1 -10.6

Returns the measured growth inhibition for the input compound. Input: CC(=O)OCc1ccc2ccccc2c1 -10.8

Returns the measured growth inhibition for the input compound. Input: CCOc1ccccc1N1C(=O)CSC1=S 51.2

Returns the measured growth inhibition for the input compound. Input: COc1ccc(-c2coc3c4c(c(CC=C(C)C)c(O)c3c2=O)OC(C)(C)C=C4)cc1OC 10.9

Returns the measured growth inhibition for the input compound. Input: O=C1CCc2cc3c(cc21)OCO3 -3.95

Returns the measured growth inhibition for the input compound. Input: S=C(c1ccccc1Cl)N1CCOCC1 14.7

Returns the measured growth inhibition for the input compound. Input: NC(Cc1ccc(O)cc1)C(=O)NCCS(=O)(=O)O (stereo not drawn) 26.7

Returns the measured growth inhibition for the input compound. Input: O=C1Nc2ccccc2C2Cc3c([nH]c4ccccc34)CC12 (stereo not drawn) 3.8

Returns the measured growth inhibition for the input compound. Input: CCOC(=O)C(C)C(CCC#N)(C(=O)OCC)C(=O)OCC (stereo not drawn) -24

Returns the measured growth inhibition for the input compound. Input: Clc1ccc2c(c1)-c1c3c(nn1-c1ccccc1)-c1ccccc1SC3O2 (stereo not drawn) 17.9

Returns the measured growth inhibition for the input compound. Input: COC(=O)C1OC2(CCCC3CC32)O[C@H]1C(=O)OC (stereo partly drawn) -20.6

Returns the measured growth inhibition for the input compound. Input: Cc1cc(Cl)c(Cl)cc1NC(=O)c1ccc(Cl)c(Cl)c1 9.9

Returns the measured growth inhibition for the input compound. Input: COc1ccc(OC)c(NC(=O)Nc2cccc(C(C)=O)c2)c1 33

Returns the measured growth inhibition for the input compound. Input: CN(C)CC1CCC/C1=N/OC(=O)c1ccccc1 (stereo not drawn) -20

Returns the measured growth inhibition for the input compound. Input: NC(=S)n1nc(-c2ccccc2)c(N=Nc2ccccc2[N+](=O)[O-])c1-c1ccccc1 -3.15

Returns the measured growth inhibition for the input compound. Input: CS(=O)CCN=Cc1ccc(N=Nc2ccc(O)cc2)cc1 (stereo not drawn) -0.85

Returns the measured growth inhibition for the input compound. Input: O=C1OC(C(Cl)(Cl)Cl)Nc2ccccc21 (stereo not drawn) 9.35

Returns the measured growth inhibition for the input compound. Input: O=C(CC(=O)N1N=C(n2ccc3ccccc32)CC1c1ccccc1)Nc1ccccc1Cl (stereo not drawn) -3.5

Returns the measured growth inhibition for the input compound. Input: NCCNCCCCCCNC(=O)c1cccc2cc3ccccc3nc12 -30.1

Returns the measured growth inhibition for the input compound. Input: Cc1nnc2n1N=C(c1ccc(-c3ccc([N+](=O)[O-])cc3)o1)CS2 -1.75

Returns the measured growth inhibition for the input compound. Input: CCN(CC)CCNc1nnc(NCCN(CC)CC)c2cc3ccccc3cc12 -10.1

Returns the measured growth inhibition for the input compound. Input: O=c1c2cc3ccccc3cc2c(=O)n2n1CC(O)C(Br)C2 (stereo not drawn) 36.5

Returns the measured growth inhibition for the input compound. Input: COc1cc2c(cc1OC)C(c1cc(OC)c(OC)c(OC)c1)C1(O)C(=O)OCC1(O)C2 (stereo not drawn) 13.1

Returns the measured growth inhibition for the input compound. Input: O=c1oc2ccccc2c(O)c1C=NC(=S)c1ccncc1 -27.9

Returns the measured growth inhibition for the input compound. Input: Cc1ccc(N2CCN(C(=O)c3ccccc3)CC2)cc1 -2.45

Returns the measured growth inhibition for the input compound. Input: CCC(C)C1CCCCC1OC(=O)CCl (stereo not drawn) -16.3

Returns the measured growth inhibition for the input compound. Input: OCCN(CCO)c1nc(N(CCO)CCO)nc(N(CCO)CCO)n1 20.2

Returns the measured growth inhibition for the input compound. Input: [O-]c1csc2n(-c3ccccc3)c3ccccc3[n+]12 1.85

Returns the measured growth inhibition for the input compound. Input: O=C1C(Cc2ccc(O)cc2)NC(=S)N1c1ccccc1 (stereo not drawn) 24.9

Returns the measured growth inhibition for the input compound. Input: COc1ccc2c(c1)C(=O)C1CC(=O)CCC21 (stereo not drawn) -8.9

Returns the measured growth inhibition for the input compound. Input: O=C1C(=O)N(c2ccc(Cl)cc2Cl)C(=O)C(=O)C1c1nc2ccccc2s1 4

Returns the measured growth inhibition for the input compound. Input: O=S(=O)(Nc1ccn(-c2ccccc2)n1)c1ccc(NCc2c3ccccc3nc3cc(Cl)ccc23)cc1 15.8

Returns the measured growth inhibition for the input compound. Input: Nc1nc(=O)n(CCCOc2cccc(Cl)c2)cc1-c1ccc(Cl)c(Cl)c1 52.2

Returns the measured growth inhibition for the input compound. Input: CC(=O)N(C(C)=O)c1ccccc1/C=C1\CCOC1=O -2.25

Returns the measured growth inhibition for the input compound. Input: CCC1(CC)C(=O)N(C(=O)c2ccc(C)cc2)N(C(=O)c2ccc(C)cc2)C1=O 14.6
